Origin of measurements: PubChem BioAssay AID248

tested on: L1210 leukemia ip in BDF1 mice, survival T/C; test: NCI In Vivo Anticancer Drug Screen. Data for tumor model L1210 Leukemia (intraperitoneal) in B6D2F1 (BDF1) mice; settings: endpoint: mean survival time; dose: 300.0 mg/kg/injection; schedule: Q04DX003 (ip); vehicle: saline; higher = longer survival
Inconclusive results and toxic doses are left out.
Listed next: entries and their corresponding T/C.

Some entries whose results are on file:
[
  {
    "compound": "O=C(O)CCSCCC(=O)O",
    "test.result": "102 % of control"
  },
  {
    "compound": "CCN(CC)CCCC(C)Nc1nnc2c(=O)n(C)c(=O)n(C)c2n1 (centres undefined)",
    "test.result": "87 % of control"
  },
  {
    "compound": "CC12C(=O)OC3CCC1CC32 (centres undefined)",
    "test.result": "94 % of control"
  }
]

In the following, a different compound is considered.
Exam item: Quick check: T/C of `Cc1c2cnccc2c(C)c2c1c1ccccc1n2CCCl` ?
Marked response: 100 % of control

---

test system: L1210 leukemia ip in BDF1 mice, survival T/C; assay: NCI In Vivo Anticancer Drug Screen. Data for tumor model L1210 Leukemia (intraperitoneal) in B6D2F1 (BDF1) mice; conditions: endpoint: mean survival time; dose: 400.0 mg/kg/injection; schedule: Q04DX003 (ip); vehicle: Klucel (hydroxypropylcellulose) (HPC); higher = longer survival
Toxic doses and inconclusive results are not listed.
Listed next: entries and their corresponding T/C.

[
  {
    "compound": "CC1CC(O)=C(c2ccccc2)P1(=O)Cc1ccccc1 (centres undefined)",
    "endpoint": "T/C",
    "test.result": "89 % of control"
  },
  {
    "compound": "CCCCCCCCCCCCCCCSc1ccc2ccccc2c1",
    "endpoint": "T/C",
    "test.result": "92 % of control"
  },
  {
    "compound": "Cc1ccc(NC(=O)/C=C\\C(=O)O)cc1",
    "endpoint": "T/C",
    "test.result": "91 % of control"
  },
  {
    "compound": "O=C1c2c(O)ccc([N+](=O)[O-])c2C(=O)c2c([N+](=O)[O-])ccc(O)c21",
    "endpoint": "T/C",
    "test.result": "95 % of control"
  },
  {
    "compound": "OCCSC(SCCO)=C(SCCO)SCCO",
    "endpoint": "T/C",
    "test.result": "94 % of control"
  },
  {
    "compound": "Nc1nc(-c2ccccc2)c(CCCNC(=O)c2ccc([N+](=O)[O-])cc2)c(=O)[nH]1",
    "endpoint": "T/C",
    "test.result": "90 % of control"
  }
]

Exam item: Quick check: T/C of `CCCCNC(N)=S` ?
Marked response: 102 % of control

Exam item: Quick check: T/C of `CCOC(=O)CNC(c1ccccc1)(c1ccccc1)c1ccccc1` ?
Marked response: 98 % of control

Exam item: Quick check: T/C of CCC1(O)C2CCCC1CCC2 (centres undefined) ?
Marked response: 97 % of control

Exam item: Quick check: T/C of `CC(=O)NC(=O)Nc1ccccc1` ?
Marked response: 95 % of control

Exam item: Quick check: T/C of `CC(=O)Nc1ccc(/C=C/C(=O)c2ccc(C)cc2)cc1` ?
Marked response: 94 % of control

Exam item: Quick check: T/C of `COc1ccc(OC)c(C(=O)CCCCC(=O)O)c1` ?
Marked response: 104 % of control

Exam item: Quick check: T/C of CCC(Cl)COP(=O)(OCC(Cl)CC)OC(C(C)C)P(=O)(OCC(Cl)CC)OCC(Cl)CC (centres undefined) ?
Marked response: 90 % of control

---

system: L1210 leukemia ip in BDF1 mice, survival T/C; test: NCI In Vivo Anticancer Drug Screen. Data for tumor model L1210 Leukemia (intraperitoneal) in B6D2F1 (BDF1) mice; settings: endpoint: mean survival time; dose: 150.0 mg/kg/injection; schedule: Q04DX003 (ip); vehicle: Klucel (hydroxypropylcellulose) (HPC); higher = longer survival
Inconclusive results and toxic doses are left out.
endpoint: T/C

Some entries whose results are on file:
[
  {
    "compound": "CC(=O)OC1([N+](=O)[O-])c2ccccc2C2CC1c1ccccc12 (centres undefined)",
    "test.result": "107 % of control"
  },
  {
    "compound": "CCCCCCn1c2ccccc2c2cc3cnccc3c(C)c21",
    "test.result": "102 % of control"
  },
  {
    "compound": "COCCNC1=C(F)C(=O)C(NCCOC)=C(F)C1=O",
    "test.result": "94 % of control"
  }
]

In the following, a different compound is considered.
Exam item: Item `CCOc1ccc2nc(Cl)sc2c1` with L1210 leukemia ip in BDF1 mice, survival T/C - T/C?
Marked response: 96 % of control

---

System: L1210 leukemia ip in BDF1 mice, survival T/C
Assay: NCI In Vivo Anticancer Drug Screen. Data for tumor model L1210 Leukemia (intraperitoneal) in B6D2F1 (BDF1) mice
Details: endpoint: mean survival time; dose: 200.0 mg/kg/injection; schedule: Q01DX001 (ip); vehicle: saline with Tween-80; higher = longer survival
Experimental: The antitumor activity of compounds was measured in mice bearing transplantable tumors. Survival or tumor size were measured and the results are expressed as the measurement made in the treated group (T) divided by the measurement made in the vehicle treated control group (C). The tumor model used in this assay is L1210 Leukemia (intraperitoneal) in B6D2F1 (BDF1) mice
Inconclusive results and toxic doses are left out.
endpoint: T/C

[
  {
    "compound": "O=C1CC(c2ccccc2)C2(c3ccccc3)OC12 (configuration not stated)",
    "T/C": "94 % of control"
  },
  {
    "compound": "O=[N+]([O-])c1ccc(\\C=C/C=C/C=C/C2(CCl)OCCO2)cc1",
    "T/C": "87 % of control"
  },
  {
    "compound": "Cc1c(/C=N/N(CCO)CCO)[nH]c(=O)[nH]c1=O",
    "T/C": "103 % of control"
  },
  {
    "compound": "Cc1ccc(C)c(NC(=S)NC(=O)c2ccc(Cl)cc2Cl)c1",
    "T/C": "104 % of control"
  },
  {
    "compound": "COC1(OC)CCC=C(CNc2ncnc3nc[nH]c23)C1",
    "T/C": "94 % of control"
  }
]

Exam item: Quick check: T/C of `CCCCCCCCCCCCN1CCCN(CCCCCCCCCCCC)CC1` ?
Marked response: 98 % of control

Exam item: Quick check: T/C of CC1CCCC(C)N1N (configuration not stated) ?
Marked response: 93 % of control

Exam item: Quick check: T/C of `CCOC(=O)c1ccc(NC(=O)Nc2cc(OC)ccc2OC)cc1` ?
Marked response: 95 % of control

Exam item: Quick check: T/C of `O=C(O)CCCCCN1C(=O)c2cccc([N+](=O)[O-])c2C1=O` ?
Marked response: 109 % of control

Exam item: Quick check: T/C of `Cc1c2ccccc2cc2[n+]1CCc1ccccc1-2` ?
Marked response: 96 % of control

Exam item: Quick check: T/C of CC(=O)NC1C(OC(C)=O)OC(COC(C)=O)C(OC(C)=O)C1OC(C)=O (configuration not stated) ?
Marked response: 103 % of control

Exam item: Quick check: T/C of `FC(F)(F)Cc1cccc(C(F)(F)F)c1` ?
Marked response: 103 % of control

---

tested on: L1210 leukemia ip in BDF1 mice, survival T/C; assay: NCI In Vivo Anticancer Drug Screen. Data for tumor model L1210 Leukemia (intraperitoneal) in B6D2F1 (BDF1) mice; details: endpoint: mean survival time; dose: 12.5 mg/kg/injection; schedule: Q04DX003 (ip); vehicle: saline; higher = longer survival
Toxic doses and inconclusive results are not listed.
endpoint: T/C

[
  {
    "compound": "CCC(C)C(CCN1CCCCC1)(CNC(=O)CN(CC)CC)Cc1cccc2ccccc12 (centres undefined)",
    "measured.target": "L1210 leukemia ip in BDF1 mice, survival T/C",
    "test.result": "101 % of control"
  },
  {
    "compound": "CN(C)c1ccc(Nc2c3ccccc3nc3ccccc23)cc1",
    "measured.target": "L1210 leukemia ip in BDF1 mice, survival T/C",
    "test.result": "104 % of control"
  },
  {
    "compound": "CNC(C)CC1CCCCC1 (centres undefined)",
    "measured.target": "L1210 leukemia ip in BDF1 mice, survival T/C",
    "test.result": "100 % of control"
  }
]

Exam item: Quick check: T/C of CCCCNCC1COc2cccc(OCC)c2O1 (centres undefined) ?
Marked response: 106 % of control
